STUDY SYSTEM: Electrophorus electricus AChE (EeAChE) (Electrophorus electricus, UniProt O42275)
Construct: purchased Sigma-Aldrich (Milan, Italy)
Sequence (O42275 24-633): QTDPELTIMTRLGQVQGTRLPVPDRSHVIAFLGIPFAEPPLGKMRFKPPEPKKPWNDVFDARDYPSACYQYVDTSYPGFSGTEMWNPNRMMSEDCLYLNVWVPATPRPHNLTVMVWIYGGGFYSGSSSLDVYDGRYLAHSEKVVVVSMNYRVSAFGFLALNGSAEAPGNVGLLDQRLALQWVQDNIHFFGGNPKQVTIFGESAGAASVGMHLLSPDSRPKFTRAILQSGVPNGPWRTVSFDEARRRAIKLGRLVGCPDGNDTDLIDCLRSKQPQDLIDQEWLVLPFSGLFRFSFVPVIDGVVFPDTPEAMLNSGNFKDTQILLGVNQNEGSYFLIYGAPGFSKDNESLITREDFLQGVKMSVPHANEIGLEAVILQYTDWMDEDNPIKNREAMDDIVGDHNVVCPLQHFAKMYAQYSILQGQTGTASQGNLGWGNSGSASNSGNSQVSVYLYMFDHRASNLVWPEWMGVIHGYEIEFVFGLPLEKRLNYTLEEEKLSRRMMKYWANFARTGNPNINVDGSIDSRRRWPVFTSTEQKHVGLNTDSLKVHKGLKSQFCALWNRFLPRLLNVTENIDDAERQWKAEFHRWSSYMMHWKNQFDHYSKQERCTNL
EXPERIMENTAL PROTOCOL: Percent inhibition of EeAChE, Ellman's spectrophotometric method
Assay type: biochemical
STUDY CONDITIONS: read-out: % inhibition vs EeAChE ± SD (9 uM), 9 uM; supplement csv
compounds and their reported inhibition at 9 µM

# SMILES DATA, inhibition at 9 µM [%]
rows = [
    ("COc1cc(CNCCCCCCNc2ncccn2)ccc1O", 59.5),
    ("Brc1ccc(CNCCCCCNc2ccccn2)cc1", 18.2),
    ("Oc1cccc(CNCCCCCCNc2ccccn2)c1O", 63.9),
]

// provenance: paper PMC8569681
